All values here come from ChEMBL document CHEMBL1201862.

# System: CCRF-CEM
# ASSAY_COMMENT: NCI tumour cell line growth inhibition, 48 h
Calls of active or inactive are those of the source. Cut-off read from the data, not from the text of the source: active = GI50 up to about 1.1 µM and inactive = higher.
Outcomes: t (active), f (inactive)

{"columns": ["COMPOUND", "CLASS_NAME"],
 "data": [
  ["COc1cc2c(cc1OC)C1(c3ccccc3)CN(C2)Cc2cc(OC)c(OC)cc21", "f"],
  ["COc1cc(-c2cc(=O)c3cc(C)c(C)c(C(=O)O)c3o2)cc(OC)c1OC", "f"],
  ["Cc1cc2c(c(C#N)c1C)NC(=O)CCC2=O", "f"],
  ["Cc1ccc(SC2C(C)(C)N(C(C)C)P2(=O)N(C(C)C)C(C)C)cc1 (stereo not drawn)", "f"],
  ["C=C(C)[C@@H]1CCc2c(c(C)cc(O)c(=O)c2O)C1", "t"],
  ["O=C1/C(=C/c2ccccc2)N=C(c2ccccc2)N1n1c(-c2ccccc2)nc2ccccc2c1=O", "f"],
  ["O=C1NC2c3c(I)sc(I)c3C(O)C2O1 (stereo not drawn)", "f"],
  ["Cc1ccc(S(=O)(=O)N(CC(O)COc2ccccc2)c2c(F)c(F)c(F)c(F)c2F)cc1 (stereo not drawn)", "t"],
  ["COc1ncc(C=C(C#N)C#N)c(OC)n1", "f"],
  ["O=C1NCCCc2nonc21", "f"],
  ["CCOC(=O)NC(=O)c1cn(CCNCCO)c(=O)[nH]c1=O", "f"],
  ["CC12C/C(=C\\c3ccccc3)C(=O)C3C1CCCC32", "f"],
  ["O=C1C/C(=C\\c2ccccc2)C(=O)c2ccccc2N1", "f"],
  ["c1ccc(-c2nc(-c3ccccc3)c(-c3ccccc3)[nH]2)cc1", "f"],
  ["C#CCN(N=O)C(=O)NC(CCCNC(=O)OCc1ccccc1)C(=O)OCc1ccccc1 (stereo not drawn)", "f"],
  ["COc1ccc(/C=C2/CCS(=O)(=O)c3ccc(C)cc3C2=O)cc1OC", "f"],
  ["Nc1nc(O)nc2snnc12", "f"],
  ["C(=C\\c1cc(CCc2nc3ccccc3[nH]2)n[nH]1)/c1ccccc1", "f"],
  ["Cc1ccc(S(=O)(=O)OCC23CCC(C4CC42)C2CC23)cc1 (stereo not drawn)", "f"],
  ["O=C1N[C@@H]2c3c(Br)sc(Br)c3C(=O)[C@@H]2O1", "f"],
  ["CCOc1ccc2ccccc2c1NC1=NCCO1", "f"],
  ["O=C(CC1(O)C(=O)Nc2c(Cl)cc(Cl)cc21)c1cccc2ccccc12 (stereo not drawn)", "f"],
  ["C/C=C(\\C)C(=O)OC1/C=C(\\C)CC/C=C(\\C)CC2OC(=O)C(C)(OC(C)=O)C12 (stereo not drawn)", "f"]
]}
